Tested on: human ALX receptor (Homo sapiens, UniProt P25090)
Construct: expressed in transfected cells; host or cells: HEK293 (HEK293-hALXR-Gα16)
Sequence (P25090 1-351): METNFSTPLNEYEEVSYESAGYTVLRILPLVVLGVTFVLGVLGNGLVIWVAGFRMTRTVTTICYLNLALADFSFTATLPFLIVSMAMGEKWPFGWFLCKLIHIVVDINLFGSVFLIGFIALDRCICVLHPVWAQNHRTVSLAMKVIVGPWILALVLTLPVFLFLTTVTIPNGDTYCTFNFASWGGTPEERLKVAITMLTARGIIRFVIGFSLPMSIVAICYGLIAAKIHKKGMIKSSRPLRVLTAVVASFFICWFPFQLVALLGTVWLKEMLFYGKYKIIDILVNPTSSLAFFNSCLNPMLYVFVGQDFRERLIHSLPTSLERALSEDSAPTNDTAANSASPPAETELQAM
Assay: Intracellular calcium measurements (FLIPR), agonistic activity in HEK293-hALXR-Gα16 cells
Format: cell-based
Setup conditions: Fluo-4 calcium FLIPR, normalized to WKYMVm 10 nM
pEC50: −log10 of the molar value.
Observation type: pEC50

Record excerpt, results attached:
{"Compound": "CN(C)CCCCCNC(=O)[C@H]1[C@H](C(=O)Nc2ccc(Br)cc2)[C@@H]2CC[C@H]1C21CC1 (racemic)", "pEC50": 9.15}
{"Compound": "CC(C)CNC(=O)C1C(C(=O)Nc2ncc(Br)s2)C2C=CC1C21CC1 (stereo not shown)", "pEC50": 8.41}
{"Compound": "O=C(NCCCCN1CCCC1)C1C(C(=O)Nc2ccc(Cl)nc2)C2C=CC1C21CC1 (racemic)", "pEC50": 8.11}
{"Compound": "O=C(NCCF)[C@H]1[C@H](C(=O)Nc2ccc(Br)cc2)[C@@H]2C=C[C@H]1C21CC1 (racemic)", "pEC50": 8.57}

1 = O=C(CCc1c[nH]c2ccccc12)NC[C@H]1[C@H](C(=O)Nc2ccc(Br)cc2)[C@@H]2C=C[C@H]1C21CC1 (racemic)
2 = CC(C)CCN1CCC(NC(=O)[C@H]2[C@H](C(=O)Nc3ccc(Br)cc3)[C@@H]3C=C[C@H]2C32CC2)CC1 (racemic)
Ask: Rank 1 against 2 by their pEC50 values and give the higher one. Pick one and reply with its label.
Reply: 2

----------
Tested on: human ALX receptor (Homo sapiens, UniProt P25090)
Assay: Intracellular calcium measurements (FLIPR), agonistic activity in HEK293-hALXR-Gα16 cells
Setup conditions: Fluo-4 calcium FLIPR, normalized to WKYMVm 10 nM
pEC50: −log10 of the molar value.
Observation type: pEC50

{"Compound": "O=C(NCC1CCNCC1)[C@H]1[C@H](C(=O)NCc2ccc(Br)cc2)[C@@H]2C=C[C@H]1C21CC1 (racemic) [Example 311]", "Measurement": 7.27}
{"Compound": "Cc1[nH]ncc1CCCNC(=O)[C@H]1[C@H](C(=O)Nc2ccc(Br)cc2)[C@@H]2C=C[C@H]1C21CC1 (racemic) [Example 88]", "Measurement": 6.77}
{"Compound": "Cc1ccc(NC(=O)[C@H]2[C@H](C(=O)NCCC(N)=O)[C@H]3C=C[C@@H]2C32CC2)nc1 [Example 313]", "Measurement": 6.48}
{"Compound": "O=C(NCCCn1cncn1)[C@H]1[C@H](C(=O)Nc2ccc(Br)cc2)[C@@H]2C=C[C@H]1C21CC1 (racemic) [Example 55]", "Measurement": 7.74}
{"Compound": "O=C(NCCCCN1CCCC1)[C@H]1[C@H](C(=O)NCCc2ccccc2)[C@@H]2C=C[C@H]1C21CC1 (racemic) [Example 139]", "Measurement": 6.14}
{"Compound": "CC(=O)c1ccc(CNC(=O)[C@H]2[C@H](C(=O)NCCCCN3CCCC3)[C@H]3C=C[C@@H]2C32CC2)s1 (racemic) [Example 194]", "Measurement": 6.65}
{"Compound": "CNCCNC(=O)[C@H]1[C@H](C(=O)Nc2ncc(Br)s2)[C@@H]2CC[C@H]1C21CC1 [Example 413]", "Measurement": 7.89}
{"Compound": "O=C(NC1CNC1)[C@H]1[C@H](C(=O)Nc2ncc(Br)s2)[C@@H]2CC[C@H]1C21CC1 [Example 419]", "Measurement": 7.24}
{"Compound": "CC(C)Oc1ccc(CNC(=O)[C@H]2[C@H](C(=O)NCCCCN3CCCC3)[C@H]3C=C[C@@H]2C32CC2)cc1 (racemic) [Example 233]", "Measurement": 5.14}
{"Compound": "O=C(NCCCCN1CCCC1)[C@H]1[C@H](C(=O)Nc2ccc(Br)nc2)[C@@H]2CC[C@H]1C21CC1 [Example 279]", "Measurement": 8.89}

a = CC(C)CNC(=O)[C@H]1[C@H](C(=O)Nc2ncc(Br)s2)[C@@H]2CC[C@H]1C21CC1 [Example 331]
b = CC(=O)c1csc(NC(=O)[C@H]2[C@H](C(=O)NCCCCN3CCCC3)[C@H]3C=C[C@@H]2C32CC2)n1 (racemic) [Example 344]
Ask: Would you mind telling me which has the lower recorded pEC50 between a and b ? Pick one and reply with its label.
Reply: b
(b: 5.11, a: 7.09)

----------
Tested on: human ALX receptor (Homo sapiens, UniProt P25090)
Construct: expressed in transfected cells; host or cells: HEK293 (HEK293-hALXR-Gα16)
Assay: Intracellular calcium measurements (FLIPR), agonistic activity in HEK293-hALXR-Gα16 cells
Format: cell-based
Setup conditions: Fluo-4 calcium FLIPR, normalized to WKYMVm 10 nM
pEC50: −log10 of the molar value.
Observation type: pEC50

I = O=C(NCCCCN1CCCC1)C1C(C(=O)NCCc2ccc(F)cc2)C2C=CC1C21CC1 (stereo not shown) [Example 382]
II = O=C(NCCCCN1CCCC1)[C@H]1[C@H](C(=O)Nc2ncc(Br)s2)[C@@H]2C=C[C@H]1C21CC1 [Example 225]
III = CCCCC(=O)NC[C@H]1[C@H](C(=O)Nc2ccc(Br)cc2)[C@@H]2C=C[C@H]1C21CC1 (racemic) [Example 167]
IV = NC(=O)C(Cc1ccccc1)NC(=O)C1C(C(=O)Nc2ccc(Br)cc2)C2C=CC1C21CC1 (mixture of isomers) [Example 95]
V = CC(C)CCNC(=O)[C@H]1[C@H](C(=O)NCCCCN2CCCC2)[C@H]2C=C[C@@H]1C21CC1 (racemic) [Example 135]
Ask: In this exercise, place the 5 compounds in ascending sequence of their recorded pEC50. In plain terms: list the labels in the order you were asked to.
Reply: I, V, IV, III, II
(I: 5.20, V: 6.45, IV: 6.65, III: 6.99, II: 8.19)

----------
Tested on: human ALX receptor (Homo sapiens)
Sequence (P25090 1-351): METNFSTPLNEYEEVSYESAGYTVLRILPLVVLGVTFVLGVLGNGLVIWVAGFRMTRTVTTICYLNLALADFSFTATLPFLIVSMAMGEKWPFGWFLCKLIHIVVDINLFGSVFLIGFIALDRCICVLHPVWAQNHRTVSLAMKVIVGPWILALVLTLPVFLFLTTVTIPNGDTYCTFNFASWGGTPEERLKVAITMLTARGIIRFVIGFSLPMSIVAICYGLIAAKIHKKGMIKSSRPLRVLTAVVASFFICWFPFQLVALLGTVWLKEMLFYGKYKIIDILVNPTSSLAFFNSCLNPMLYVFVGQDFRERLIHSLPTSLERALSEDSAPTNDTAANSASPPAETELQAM
Assay: Intracellular calcium measurements (FLIPR), agonistic activity in HEK293-hALXR-Gα16 cells
Setup conditions: Fluo-4 calcium FLIPR, normalized to WKYMVm 10 nM
Experimental: The ALX receptor and FPRL2 agonistic activities of the compounds of formula (I) are determined in accordance with the following experimental method. Intracellular Calcium Measurements: Cells expressing recombinant human ALX receptor and the G-protein Gα16 (HEK293-hALXR-Gα16) were grown to 80% confluency in Growing Medium (GM). […] Changes in fluorescence were monitored before and after the addition of test compounds at lex=488 nm and lem=540 nm. […]
pEC50: −log10 of the molar value.
Observation type: pEC50

{"Molecule": "O=C(NCCCC(=O)N1CCCC1)[C@H]1[C@H](C(=O)Nc2ccc(Br)cc2)[C@@H]2C=C[C@H]1C21CC1", "pEC50": 8.21}

P = O=C(NCCCCN1CCCC1)[C@H]1[C@H](C(=O)NCc2ccc(F)c(Br)c2)[C@@H]2C=C[C@H]1C21CC1 (racemic)
Q = O=C(CCc1cccnc1)NC[C@H]1[C@H](C(=O)Nc2ccc(Br)cc2)[C@@H]2C=C[C@H]1C21CC1 (racemic)
Ask: Would you mind telling me which has the lower recorded pEC50 between P and Q ? Pick one and reply with its label.
Reply: P
(P: 5.13, Q: 6.87)

a = NC(=O)CCNC(=O)[C@H]1[C@H](C(=O)Nc2ccc(Br)nc2)[C@@H]2CC[C@H]1C21CC1
b = O=C(NCCCCN1CCCC1)[C@H]1[C@H](C(=O)NCc2ccc(Br)cc2F)[C@@H]2C=C[C@H]1C21CC1
Ask: Rank a against b by their pEC50 values and give the higher one. Pick one and reply with its label.
Reply: a

1 = CC(=O)CCCNC(=O)[C@H]1[C@H](C(=O)NCCCCN2CCCC2)[C@H]2C=C[C@@H]1C21CC1 (racemic)
2 = Cc1nc(CC(=O)NC[C@H]2[C@H](C(=O)Nc3ccc(Br)cc3)[C@@H]3C=C[C@H]2C32CC2)cs1 (racemic)
Ask: Would you mind telling me which has the lower recorded pEC50 between 1 and 2 ? Pick one and reply with its label.
Reply: 1

1 = O=C(NCCCCN1CCCCC1)[C@H]1[C@H](C(=O)Nc2ccc(Br)cc2)[C@@H]2C=C[C@H]1C21CC1
2 = CCCCCNC(=O)[C@H]1[C@H](C(=O)Nc2ccc(Br)cc2)[C@@H]2C=C[C@H]1C21CC1 (racemic)
Ask: Rank 1 against 2 by their pEC50 values and give the higher one. Pick one and reply with its label.
Reply: 1
(1: 10.15, 2: 7.47)

P = NCc1ccc(CNC(=O)[C@H]2[C@H](C(=O)NCc3ccc(Br)cc3)[C@@H]3C=C[C@H]2C32CC2)cc1 (racemic)
Q = CC(C)(C)OC(=O)N1CCCC1CNC(=O)C1C(C(=O)Nc2ccc(Br)cc2)C2C=CC1C21CC1 (mixture of isomers)
Ask: Rank P against Q by their pEC50 values and give the higher one. Pick one and reply with its label.
Reply: Q
(Q: 7.02, P: 6.44)

A = O=C(NCCc1ccccn1)[C@H]1[C@H](C(=O)Nc2ccc(Br)cc2)[C@@H]2C=C[C@H]1C21CC1 (racemic)
B = O=C(NCCCN1CCCC1)[C@H]1[C@H](C(=O)Nc2ccc(Br)cc2)[C@@H]2C=C[C@H]1C21CC1 (racemic)
Ask: Rank A against B by their pEC50 values and give the higher one. Pick one and reply with its label.
Reply: B
(B: 8.31, A: 7.21)

Where do these numbers come from? They come from patent US8563714B2.
